# System: RXF 393
# TEST METHOD NOTES: Cytotoxicity against human RXF393 cells assessed as growth inhibition after 72 hrs by MTT assay
# Assay type: functional
# RUN PARAMETERS: RXF 393, 72 h
PARAMETER MEASURED: GI50 (µM)
Field format: number, assumed µM, no unit text.

# RECORD SMILES, GI50 (µM)
rows = [
    ("COc1cc2nnn3c4ncccc4c(N=O)c3c2cc1OC", 0.4),
]

Sample COc1cc2nnc3c4cccnc4[nH]c3c2cc1OC — what was its GI50? 0.71

Try this molecule too: COc1ccc2c(c1)nnn1c3ncccc3c(N=O)c21 0.31

Try this molecule too: COc1ccc2c(c1)nnc1c3cccnc3[nH]c21 0.66

Try this molecule too: O=Nc1c2cccnc2n2nnc3ccc(Cl)cc3c12 0.56
